Recorded melting point values for a group of molecules are listed next.

1. O=C(O)Cc1coc2cc(OCc3ccccc3)ccc12 : 153 to 155 °C
2. O=C(NC(C(=O)O)c1coc2cc(Br)ccc12)c1ccccc1 (stereo not drawn) : 209 to 212 °C

Now consider a different molecule.
Input: What measured melting point goes with O=C(O)Cc1coc2cc(Nc3ccccc3)ccc12 ?
Output: 127 to 130 °C

###

Recorded melting point values for a group of compounds are listed next.

1) O=C(O)Cc1coc2cc(Cc3ccccc3)ccc12 : 124 to 127 °C
2) COc1ccc(CC(=O)NC(C(=O)O)c2coc3cc(Br)ccc23)cc1 (stereo not shown) : 159 to 161 °C
3) O=C(O)C(NS(=O)(=O)c1ccccc1)c1coc2cc(Br)ccc12 (stereo not shown) : 179 to 182 °C

Now consider a different compound.
Input: What measured melting point goes with CCCCOc1ccc2c(CC(=O)O)coc2c1 ?
Output: 108 to 109 °C
